The reported numbers originate from paper PMC11775033.

Experiment: Kinetics of UV-P in blood after single oral administration (human volunteer study)
Format: in vivo
Conditions: both sexes, human, whole blood, po, 0.3 mg/kg, human blood, single oral 0.3 mg/kg, first phase up to 6 h, n = 3, mean ± SD (range); read-out: t1/2—Phase 1 (blood) (converted)
PROPERTY_LABEL: half-life (h)
Enter your answer as a number in h; do not include the unit.

Request the reported half-life associated with Cc1ccc(O)c(-n2nc3ccccc3n2)c1
1.3

###

Assay: Kinetics of UV-P in blood after single oral administration (human volunteer study)
Assay type: in vivo
Details: both sexes, whole blood; human blood, single oral 0.3 mg/kg body weight, with enzymatic hydrolysis, n = 3, mean ± SD (range); read-out: cmax (maximum level of UV-P in blood)
PROPERTY_LABEL: Cmax (ng/mL)
Enter your answer as a number in ng/mL; do not include the unit.

Request the reported Cmax associated with Cc1ccc(O)c(-n2nc3ccccc3n2)c1
184

###

Experiment: Kinetics of UV-P in blood after single oral administration (human volunteer study)
Format: in vivo
Details: human, whole blood, 0.3 mg/kg body weight; 72 h after oral administration, Subject 1 only; read-out: blood level of UV-P
Experimental: Three healthy volunteers (two men and one person) aged between 23 and 57 years were included in the study. The administered dose of UV-P was calculated with respect to an adequate distance from the no-observed-adverse-effect level (NOAEL) determined in toxicological studies in rats (30 mg/kg body weight per day) (OECD [2017]). The NOAEL was used as a starting point and a safety factor of 100 was applied. As a result, 0.3 mg/kg body weight was administered to each participant. […]
PROPERTY_LABEL: concentration at 72 h (ng/mL)
Enter your answer as a number in ng/mL; do not include the unit.

Request the reported concentration at 72 h associated with Cc1ccc(O)c(-n2nc3ccccc3n2)c1
0.45

###

Assay: Kinetics of UV-P in blood after single oral administration (human volunteer study)
Type: in vivo
Settings: both sexes, human, whole blood, po, 0.3 mg/kg, human blood, single oral 0.3 mg/kg, second phase, n = 3, mean ± SD (range); read-out: t1/2—Phase 2 (blood) (converted)
PROPERTY_LABEL: half-life (h)
Enter your answer as a number in h; do not include the unit.

Request the reported half-life associated with Cc1ccc(O)c(-n2nc3ccccc3n2)c1
7.7
